target: T1, Human CXCR7 (human, UniProt P25106 1-362); test: FACS, Hek293 hCXCR7 over Hek293 wt cells
T1 construct: see assay field; also called hCXCR7
T1 sequence (P25106 whole entry): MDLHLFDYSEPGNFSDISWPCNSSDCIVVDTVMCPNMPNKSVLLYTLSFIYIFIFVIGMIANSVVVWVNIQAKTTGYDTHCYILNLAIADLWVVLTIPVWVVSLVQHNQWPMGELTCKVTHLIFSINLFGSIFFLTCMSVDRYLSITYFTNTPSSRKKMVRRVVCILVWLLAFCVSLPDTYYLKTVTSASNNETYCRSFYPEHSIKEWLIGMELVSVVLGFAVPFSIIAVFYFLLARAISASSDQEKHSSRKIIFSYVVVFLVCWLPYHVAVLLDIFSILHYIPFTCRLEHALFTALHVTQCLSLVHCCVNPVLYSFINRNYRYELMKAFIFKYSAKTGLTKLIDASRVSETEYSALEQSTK
readout_name: Fold Hek CXCR7/CXCR4 (fold)
Enter your answer as a number in fold; do not include the unit.

Problem: Look at this binder and give its reported Fold Hek CXCR7/CXCR4. Nanobody 08A05 with Tag-1 (VHH, periplasmic extract in the screening FACS) VHH: EVQLVESGGGLVQAGDSLRLSCAASGLTFSNYDMGWFRQAPGKEREFVGASWWSGGAPYYSDSVKGRFTISRDNAKNTVYLQANSLRPEDTAVYYCAAKRLRSFASGGSYDYWGQGTQVTVSS
Solution: 60.1

Problem: Proceed to Nanobody 08A10 with Tag-1 (VHH, periplasmic extract in the screening FACS) VHH: EVQLVESGGGLVQAGGSLRLSCAASGSIFSIAAMGWYRQATGKQRELVATITDGGTTTYADSVKGRVTISRDRSANTVYLAMNNLKPDDTAVYYCYAYLRYTSRVPGDNYWGQGTQVTVSS
Solution: 85.1

Problem: Proceed to Nanobody 07C03 with Tag-1 (VHH, periplasmic extract in the screening FACS) VHH: EVQLVESGGGLVQAGESLTLSCAASGRTLSAYIMGWFRQAPGKEREFVAGIWSGGYTHLADSAKGRFSISRDNAKNTVYLQMNGLKPEDTAVYYCAAGLRGRQYSNWGQGTQVTVSS
Solution: 73.2

Problem: Proceed to Nanobody 07B11 with Tag-1 (VHH, periplasmic extract in the screening FACS) VHH: EVQLVESGGNLVQAGGSLGLSCAASVSISSIHIMGWYRQAPGKQRDLVATITSGGSTAYADSVKGRFTVSKDNAKNTVYLQMDSLKPEDTSVYYCAAEVRNGVFGKWNHYWGQGTQVTVSS
Solution: 110
